molecular target: wild-type human cardiac sodium channel, hNav1.5 (Homo sapiens, UniProt Q14524); test: Late INa screening assay (QPatch whole cell patch clamp, HEK293); assay type: cell-based; details: HEK293, percent block of late INa; compound at 1 μM; 10 μM Tefluthrin; read-out: Late INa 1 μM
Sequence (Q14524 whole entry): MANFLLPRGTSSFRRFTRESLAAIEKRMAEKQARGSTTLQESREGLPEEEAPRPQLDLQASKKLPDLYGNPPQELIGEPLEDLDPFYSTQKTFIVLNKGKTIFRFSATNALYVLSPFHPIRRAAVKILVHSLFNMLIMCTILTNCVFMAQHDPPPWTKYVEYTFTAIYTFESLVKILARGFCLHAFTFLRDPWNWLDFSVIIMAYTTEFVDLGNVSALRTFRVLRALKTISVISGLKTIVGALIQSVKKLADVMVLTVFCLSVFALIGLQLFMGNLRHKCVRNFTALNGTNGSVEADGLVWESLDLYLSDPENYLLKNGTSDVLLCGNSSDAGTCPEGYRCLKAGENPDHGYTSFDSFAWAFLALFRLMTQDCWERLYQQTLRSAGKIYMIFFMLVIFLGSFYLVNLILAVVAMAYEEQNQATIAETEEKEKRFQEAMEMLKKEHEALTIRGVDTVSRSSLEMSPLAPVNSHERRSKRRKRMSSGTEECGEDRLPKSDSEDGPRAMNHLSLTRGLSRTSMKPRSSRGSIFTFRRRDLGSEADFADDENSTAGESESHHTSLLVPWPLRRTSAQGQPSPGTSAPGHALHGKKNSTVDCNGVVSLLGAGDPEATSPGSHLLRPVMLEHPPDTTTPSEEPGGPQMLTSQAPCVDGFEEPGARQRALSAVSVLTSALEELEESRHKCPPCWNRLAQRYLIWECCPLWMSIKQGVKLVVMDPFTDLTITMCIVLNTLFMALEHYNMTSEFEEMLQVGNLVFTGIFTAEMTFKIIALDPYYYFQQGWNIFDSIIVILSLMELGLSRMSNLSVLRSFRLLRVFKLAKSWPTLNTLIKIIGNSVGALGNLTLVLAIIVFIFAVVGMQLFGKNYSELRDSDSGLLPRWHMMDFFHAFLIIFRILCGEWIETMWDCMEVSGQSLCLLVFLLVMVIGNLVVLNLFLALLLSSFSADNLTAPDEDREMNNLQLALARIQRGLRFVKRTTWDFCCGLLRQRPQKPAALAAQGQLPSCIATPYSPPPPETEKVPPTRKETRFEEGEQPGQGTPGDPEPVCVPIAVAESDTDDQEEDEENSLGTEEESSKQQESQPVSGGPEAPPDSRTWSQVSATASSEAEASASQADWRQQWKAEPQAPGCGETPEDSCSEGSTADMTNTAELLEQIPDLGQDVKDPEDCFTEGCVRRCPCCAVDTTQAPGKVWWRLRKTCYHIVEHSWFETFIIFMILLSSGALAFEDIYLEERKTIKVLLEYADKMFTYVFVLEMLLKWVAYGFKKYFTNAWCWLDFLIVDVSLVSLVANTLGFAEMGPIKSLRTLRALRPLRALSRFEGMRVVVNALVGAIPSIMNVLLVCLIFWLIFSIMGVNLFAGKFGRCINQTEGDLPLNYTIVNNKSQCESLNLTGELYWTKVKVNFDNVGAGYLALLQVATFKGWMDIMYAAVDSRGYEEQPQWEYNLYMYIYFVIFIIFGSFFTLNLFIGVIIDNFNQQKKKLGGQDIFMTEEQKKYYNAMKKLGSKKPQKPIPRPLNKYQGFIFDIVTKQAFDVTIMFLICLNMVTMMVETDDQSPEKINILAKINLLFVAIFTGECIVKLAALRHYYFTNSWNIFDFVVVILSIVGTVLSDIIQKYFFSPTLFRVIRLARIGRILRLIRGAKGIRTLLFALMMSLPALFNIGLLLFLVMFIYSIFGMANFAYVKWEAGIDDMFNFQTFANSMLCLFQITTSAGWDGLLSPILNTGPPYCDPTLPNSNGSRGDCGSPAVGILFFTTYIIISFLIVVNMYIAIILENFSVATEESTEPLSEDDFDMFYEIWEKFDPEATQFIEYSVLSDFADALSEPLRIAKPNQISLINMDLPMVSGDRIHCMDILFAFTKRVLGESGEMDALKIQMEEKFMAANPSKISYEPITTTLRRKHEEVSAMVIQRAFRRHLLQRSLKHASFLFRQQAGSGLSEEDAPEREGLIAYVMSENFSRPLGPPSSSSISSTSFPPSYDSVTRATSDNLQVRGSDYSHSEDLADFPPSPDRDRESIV
Is inhibition at 1 µM at least 30%? Then YES. If not, NO.

Threshold query (inhibition at 1 µM >= 30%) on O=C1c2cc(CCc3ccc(C(F)(F)F)cc3)ccc2OCCN1Cc1ncccc1F
YES

Textbook exercise: given the entry O=C1c2cc(-c3ccc(OC(F)(F)F)cc3)ccc2OCCN1Cc1cccnc1 , state whether its inhibition at 1 µM is greater than or equal to 30%.
YES

I'd appreciate it if you could say whether CN1CCOc2ccc(-c3ccc(OC(F)(F)F)cc3)cc2C1=O has inhibition at 1 µM at least equal to 30%.
NO

Determine whether this compound has inhibition at 1 µM no lower than 30%: O=C(c1nc[nH]n1)N1CCOc2ccc(-c3ccc(C(F)(F)F)cc3)cc2C1
NO

Assess whether reported inhibition at 1 µM for Cc1cc(C(=O)N2CCOc3ccc(-c4ccc(OC(F)(F)F)cc4)cc3C2)nn1C sits at 30% or higher.
NO

Kindly determine if inhibition at 1 µM recorded for Cc1cnn(CN2CCOc3ccc(-c4ccc(OC(F)(F)F)cc4)cc3C2=O)c1 is above or exactly 30%.
YES

Decide: is the reported value of inhibition at 1 µM for Cn1cc(C(=O)N2CCOc3ccc(-c4ccc(OC(F)(F)F)cc4)cc3C2)cn1 equal to or greater than 30%?
YES

Is reported inhibition at 1 µM greater than or equal to 30% here: C[C@@H]1CN(C(=O)c2ncccn2)Cc2cc(-c3ccc(OC(F)(F)F)cc3)ccc2O1
NO

# check: inhibition at 1 µM of Cc1cnc(CN2CCOc3ccc(-c4ccc(OC(F)(F)F)cc4)cc3C2=O)cn1 is greater than or equal to 30%
YES

Does the reported inhibition at 1 µM for O=C1c2cc(-c3ccc(C(F)(F)F)cc3)ccc2OC[C@H]2CN(Cc3ncccn3)CCN12 fall at or above the 30% mark?
NO

Textbook exercise: given the entry O=C1c2cc(-c3ccc(C(F)(F)F)cc3)ccc2OC[C@H]2CN(CC(F)(F)F)CCN12 , state whether its inhibition at 1 µM is greater than or equal to 30%.
YES

Could you tell me if the measured inhibition at 1 µM of O=C1NC(Cc2ccccn2)COc2ccc(-c3ccc(OC(F)(F)F)cc3)cc21 (stereo not drawn) reaches 30% or more?
NO

Hello, I need to know if O=C(c1ncccn1)N1CCOc2ccc(-c3ccc(OC(F)(F)F)cc3)cc2C1 has measured inhibition at 1 µM not below 30%. Thanks!
YES

Could you please find out whether O=C1c2cc(-c3ccc(OC(F)(F)F)cc3)ccc2OCCN1CCCS(=O)(=O)N1CCC1 has inhibition at 1 µM that meets 30% or exceeds it?
NO

Test whether the compound O=C1c2cc(-c3ccc(OC(F)(F)F)cc3)ccc2OCCN1Cc1ncccc1F records inhibition at 1 µM of 30% or higher.
YES

Dear colleague, could you confirm whether COc1cccnc1CN1CCOc2ccc(-c3ccc(OC(F)(F)F)cc3)cc2C1=O has inhibition at 1 µM at or above 30%?
YES

Does inhibition at 1 µM meet or surpass 30% for Cn1ccnc1CN1CCOc2ccc(-c3ccc(OC(F)(F)F)cc3)cc2C1=O ?
YES

// provenance: patent US9676760B2
